Where do these numbers come from? They come from a melting point compilation (Tetko et al.; mined from patent text by program, amines drawn as free bases though some values may be those of a salt).

parameter: melting point (°C)

COc1ccc(S(=O)(=O)N(CC(N)=O)c2ccc(Cl)cc2C(O)c2ccccc2Cl)c(OC)c1 (stereo not given) | 158
COc1cc2c(cc1OC)C(=O)C(=NO)C2 | 240
Cn1cncc1C(c1ccc(Cl)cc1)c1ccc2c(c1)c(-c1nc(-c3ccccc3)cs1)cc(=O)n2C (stereo not given) | 171
Cc1cccc(P(=O)(O)c2cccc(C)c2)c1 | 172

----------
parameter: melting point (°C)

Some solved entries appear below for comparison.
CC(C)(C)OC(=O)NC1(c2ccccc2)CCN(CCC2(c3ccc(F)c(F)c3)CN(C(=O)c3ccccc3)CCO2)CC1 (centres undefined) | 107
O=c1c(CCCc2ccccn2)cc2cccnc2n1-c1ccc2nsnc2c1 | 170

(1) Cc1cc(C(=O)N2Cc3cccn3Cc3ccccc32)ccc1C1=CCCCC1(C)C
(2) Cc1cc(-c2cn[nH]c2N)ccn1
Task: // which entry reports the smaller melting point, 1 or 2 ? Refer to your chosen item by its label in the answer.
Result: 1
(1: 131 °C, 2: 230 °C)
